Reported isoTOP-ABPP ratio (R) at liganded lysine P23919_K118 values are given for each entry in this list.
# SYSTEM: DTYMK Thymidylate kinase (Homo sapiens, UniProt P23919)
# Construct: isoTOP-ABPP experiments performed in cell lysates (in vitro); endogenous in cells; host or cells: soluble proteome of human cancer cell lines (MDA-MB-231; Ramos and Jurkat also prepared)
# Sequence (P23919 whole entry): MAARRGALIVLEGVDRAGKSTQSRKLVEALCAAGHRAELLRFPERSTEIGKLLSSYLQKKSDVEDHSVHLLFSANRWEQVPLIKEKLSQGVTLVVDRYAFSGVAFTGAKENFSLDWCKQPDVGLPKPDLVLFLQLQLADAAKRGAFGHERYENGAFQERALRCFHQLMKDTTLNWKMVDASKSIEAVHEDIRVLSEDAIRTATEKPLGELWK
# ASSAY COMMENT: competitive isoTOP-ABPP
# Assay type: binding
# EXPERIMENTAL SETUP: 50 uM, in vitro, sol, 231

[[record]]
compound = "CC(C)(C)OC(=O)NCCCC(=O)Oc1ccc([N+](=O)[O-])cc1[N+](=O)[O-]"
result = 0.8

[[record]]
compound = "O=C(Oc1ccc([N+](=O)[O-])cc1[N+](=O)[O-])c1ccc2ccccc2n1"
result = 0.9

[[record]]
compound = "O=C(Oc1ccc([N+](=O)[O-])cc1[N+](=O)[O-])c1ccc(Oc2ccccc2)cc1 [fragment 39, 2,4-Dinitrophenyl 4-phenoxybenzoate]"
result = 0.8


As a next step, examine the compound that follows.
Query block: Would you kindly share the measured isoTOP-ABPP ratio (R) at liganded lysine P23919_K118 for `O=C(Oc1ccc([N+](=O)[O-])cc1[N+](=O)[O-])c1ccc(-c2ccccc2)cc1` ?
Result block: 0.9
